Record set of Ki for target or system rhesus H3 receptor (Macaca mulatta).
Give your result in nM as a bare value.

C[C@H]1CCCCN1[C@H]1CCN(c2ccc(N3CCC4(CCNCC4)C3=O)c(F)c2)C1.Cl [Example 49, Hydrochloride]	0.5
Cc1cc(N2CC[C@H](N3CCC[C@@H]3C)C2)ccc1N1CCC2(CCN(C(=O)c3ccc(OC(F)(F)F)cc3)CC2)C1=O	1.4
Cc1cc(N2CC[C@@H](N3CCC[C@H]3C)C2)ccc1N1CCC2(CCN(C(=O)c3ccc(OC(F)(F)F)cc3)CC2)C1=O	100
C[C@H]1CCCN1C1CCN(c2ccc(N3CCC4(CCN(C(=O)C5CCCCC5)CC4)C3=O)c(F)c2)CC1	0.2
COCC(=O)N1CCC2(CC1)CCN(c1ccc(N3CC[C@H](N4CCC[C@@H]4C)C3)cc1C(F)(F)F)C2=O	193
Cc1cc(N2CC[C@H](N3CCC[C@H]3C)C2)ccc1N1CCC2(CCN(C(=O)OC(C)(C)C)CC2)C1=O	132

Fill in the blank: the reported Ki of C[C@H]1CCCCN1[C@H]1CCN(c2ccc(N3CCC4(CCNCC4)C3=O)c(C(F)(F)F)c2)C1.Cl [Example 48, Hydrochloride] is ____.
0.6

Fill in the blank: the reported Ki of C[C@H]1CCCN1C1CCN(c2ccc(N3CCC4(CCNCC4)C3=O)cc2)CC1.Cl [Example 44, Hydrochloride] is ____.
0.1

Fill in the blank: the reported Ki of C[C@H]1CCCCN1[C@H]1CCN(c2ccc(N3CCC4(CCN(CC5CCCCC5)CC4)C3=O)c(C(F)(F)F)c2)C1 is ____.
0.15

Fill in the blank: the reported Ki of Cc1cc(N2CC[C@@H](N3CCC[C@@H]3C)C2)ccc1N1CCC2(CCN(CC3CCCC3)CC2)C1=O is ____.
0.8

Fill in the blank: the reported Ki of Cc1cc(N2CC[C@H](N3CCC[C@H]3C)C2)ccc1N1CCC2(CCN(C(=O)c3ccc(OC(F)(F)F)cc3)CC2)C1=O is ____.
118

Fill in the blank: the reported Ki of C[C@H]1CCCN1C1CCN(c2ccc(N3CCC4(CCN(C(=O)c5ccc(F)cc5)CC4)C3=O)cc2)CC1 is ____.
0.08

Fill in the blank: the reported Ki of Cc1cc(N2CC[C@H](N3CCC[C@@H]3C)C2)ccc1N1CCCC2(CCN(C(C)C)CC2)C1=O is ____.
0.4

Fill in the blank: the reported Ki of C[C@H]1CCCN1[C@H]1CCN(c2ccc(N3CCCC4(CCN(C(=O)C5CCOCC5)CC4)C3=O)c(F)c2)C1 is ____.
0.4

====

target: UniProt Q865E1; assay: GTPγS radioligand binding assay, inhibition of rhesus H3 constitutive functional activity (inverse agonism); format: biochemical, rhesus monkey (Macacca Mulatta); parameters: concentration or dose not given beside the values; settings: rhesus H3 cell membranes, relative to basal levels
PROPERTY LABEL: Inverse Agonism: % inhibition of Basal GTPγS binding in Rhesus H3 (%)
Give your result in % as a bare value.

C[C@H]1CCCCN1[C@H]1CCN(c2ccc(N3CCC4(CCN(C(=O)OC(C)(C)C)CC4)C3=O)cc2)C1	−14
Cc1cc(N2CC[C@H](N3CCC[C@@H]3C)C2)ccc1N1CCC2(CCN(C(=O)OC(C)(C)C)CC2)C1=O	−31
C[C@H]1CCCCN1[C@H]1CCN(c2ccc(N3CCC4(CCNCC4)C3=O)cc2)C1.Cl	−17
Cc1cc(N2CC[C@@H](N3CCC[C@H]3C)C2)ccc1N1CCC2(CCN(C(=O)c3ccc(OC(F)(F)F)cc3)CC2)C1=O	−13
C[C@H]1CCCN1C1CCN(c2ccc(N3CCC4(CCNCC4)C3=O)c(C(F)(F)F)c2)CC1.Cl	−19

Fill in the blank: the reported Inverse Agonism: % inhibition of Basal GTPγS binding in Rhesus H3 of Cc1cc(N2CC[C@H](N3CCC[C@@H]3C)C2)ccc1N1CCCC2(CCN(C(=O)c3ccoc3)CC2)C1=O is ____.
−19

Fill in the blank: the reported Inverse Agonism: % inhibition of Basal GTPγS binding in Rhesus H3 of Cc1cc(N2CCC(N3CCCC3C)C2)ccc1N1CCC2(CCN(C(=O)c3ccc(OC(F)(F)F)cc3)CC2)C1=O (stereo not shown) is ____.
−10

These data points were gathered from patent US8604046B2.
